- Study target: CYP1A2 (Homo sapiens)
- Sequence (P05177 whole entry): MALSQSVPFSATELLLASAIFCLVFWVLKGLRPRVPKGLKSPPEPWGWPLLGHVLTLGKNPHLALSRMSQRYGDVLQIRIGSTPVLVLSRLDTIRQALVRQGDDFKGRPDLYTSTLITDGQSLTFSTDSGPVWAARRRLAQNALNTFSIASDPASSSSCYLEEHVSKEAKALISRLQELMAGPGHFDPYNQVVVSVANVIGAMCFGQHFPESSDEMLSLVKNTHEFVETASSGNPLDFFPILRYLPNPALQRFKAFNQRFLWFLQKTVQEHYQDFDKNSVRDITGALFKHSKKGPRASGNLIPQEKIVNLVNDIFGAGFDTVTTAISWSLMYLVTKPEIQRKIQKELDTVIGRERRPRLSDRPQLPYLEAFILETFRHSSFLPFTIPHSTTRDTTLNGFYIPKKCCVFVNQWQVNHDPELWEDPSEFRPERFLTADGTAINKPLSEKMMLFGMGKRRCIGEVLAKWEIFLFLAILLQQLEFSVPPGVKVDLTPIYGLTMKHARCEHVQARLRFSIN
- Test description: Inhibition of human recombinant CYP1A2 at 1 uM by fluorimetric assay
- Format: ADME
Items are presented alongside their recorded inhibition at 1 µM.

{"Chemical string": "Cc1ccc(-c2ncccn2)c(C(=O)N2CC3(CC3)C[C@H]2CNc2ccc(Cl)cn2)c1", "Study target": "CYP1A2 (Homo sapiens)", "inhibition at 1 µM": "< 53%"}
{"Chemical string": "Cc1cc(C)nc(NC[C@@H]2CC3(CC3)CN2C(=O)c2nc(C)sc2-c2ccccc2)n1", "Study target": "CYP1A2 (Homo sapiens)", "inhibition at 1 µM": "< 16%"}
{"Chemical string": "Cc1nc(C(=O)N2CC3(CC3)C[C@H]2CNc2ccc(C(F)(F)F)cn2)c(-c2ccccc2)s1", "Study target": "CYP1A2 (Homo sapiens)", "inhibition at 1 µM": "< 20%"}
{"Chemical string": "Cc1ccc(-c2ncccn2)c(C(=O)N2CC3(CC3)C[C@H]2CNc2cc(C#N)ccn2)n1", "Study target": "CYP1A2 (Homo sapiens)", "inhibition at 1 µM": "< 17%"}
{"Chemical string": "Cc1ccc(-c2ncccn2)c(C(=O)N2CC3(CC3)C[C@H]2CNc2cc(C(F)(F)F)ccn2)n1", "Study target": "CYP1A2 (Homo sapiens)", "inhibition at 1 µM": "< 39%"}
{"Chemical string": "Cc1ccc(-n2nccn2)c(C(=O)N2CC3(CC3)C[C@H]2CNc2cccc(C)n2)c1", "Study target": "CYP1A2 (Homo sapiens)", "inhibition at 1 µM": "< 34%"}
{"Chemical string": "O=C(c1cc(Cl)ccc1-c1ncccn1)N1CC2(CC2)C[C@H]1CNc1cc(C(F)(F)F)ccn1", "Study target": "CYP1A2 (Homo sapiens)", "inhibition at 1 µM": "< 57%"}
{"Chemical string": "Cc1ccc(-c2ncccn2)c(C(=O)N2CC3(CC3)C[C@H]2CNc2cc(C(F)(F)F)ccn2)c1", "Study target": "CYP1A2 (Homo sapiens)", "inhibition at 1 µM": "< 72%"}
{"Chemical string": "Cc1cc(C(F)(F)F)cc(NC[C@@H]2CC3(CC3)CN2C(=O)c2nc(C)sc2-c2ccccc2)n1", "Study target": "CYP1A2 (Homo sapiens)", "inhibition at 1 µM": "< 69%"}
{"Chemical string": "Cc1nc(C(=O)N2CC3(CC3)C[C@H]2CNc2cc(C(F)(F)F)ccn2)c(-c2ccccc2)s1", "Study target": "CYP1A2 (Homo sapiens)", "inhibition at 1 µM": "< 55%"}

###

- Study target: CYP2C19 (Homo sapiens)
- Sequence (P33261 whole entry): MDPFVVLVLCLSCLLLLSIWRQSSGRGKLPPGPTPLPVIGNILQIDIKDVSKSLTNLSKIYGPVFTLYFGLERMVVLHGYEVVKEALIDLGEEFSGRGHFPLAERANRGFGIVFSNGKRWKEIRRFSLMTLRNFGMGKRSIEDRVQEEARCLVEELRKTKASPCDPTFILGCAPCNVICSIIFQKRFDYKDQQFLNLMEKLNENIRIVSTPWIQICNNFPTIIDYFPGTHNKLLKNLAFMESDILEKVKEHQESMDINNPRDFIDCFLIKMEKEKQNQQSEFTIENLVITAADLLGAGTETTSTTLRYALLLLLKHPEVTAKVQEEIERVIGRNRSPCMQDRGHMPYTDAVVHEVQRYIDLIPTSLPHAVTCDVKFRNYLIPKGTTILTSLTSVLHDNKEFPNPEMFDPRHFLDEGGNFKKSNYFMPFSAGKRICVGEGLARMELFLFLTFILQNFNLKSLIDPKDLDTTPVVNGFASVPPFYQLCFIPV
- Test description: Inhibition of human recombinant CYP2C19 at 3 uM by fluorimetric assay
- Type: ADME

{"Chemical string": "CS(=O)(=O)c1ccc(-c2ccccc2)c(C(=O)N2CC3(CC3)C[C@H]2CNc2ccc(C(F)(F)F)cn2)c1", "inhibition at 3 µM": "< 41%"}
{"Chemical string": "Cc1nc(C(=O)N2CC3(CC3)C[C@H]2CNc2ccc(C(F)(F)F)cn2)c(-c2ccccc2)s1", "inhibition at 3 µM": "< 20%"}
{"Chemical string": "Cc1ccc(-c2ccccc2)c(C(=O)N2CC3(CC3)C[C@H]2CNc2ccc(C(F)(F)F)cn2)n1", "inhibition at 3 µM": "< 20%"}
{"Chemical string": "Cc1ccc(-c2ncccn2)c(C(=O)N2CC3(CC3)C[C@H]2CNc2ccc(C(F)(F)F)cn2)n1", "inhibition at 3 µM": "< 28%"}
{"Chemical string": "Cc1cnn(-c2ccc(C)nc2C(=O)N2CC3(CC3)C[C@H]2CNc2ccc(C(F)(F)F)cn2)c1", "inhibition at 3 µM": "< 85%"}
{"Chemical string": "O=C(c1nc(OC(F)(F)F)ccc1-c1ncccn1)N1CC2(CC2)C[C@H]1CNc1ccc(C(F)(F)F)cn1", "inhibition at 3 µM": "< 58%"}
{"Chemical string": "O=C(c1cc(Cl)ccc1-c1ncccn1)N1CC2(CC2)C[C@H]1CNc1ccc(C(F)(F)F)cn1", "inhibition at 3 µM": "< 22%"}
{"Chemical string": "Cc1ccc(OCc2ccccc2)c(C(=O)N2CC3(CC3)C[C@H]2CNc2ccc(C(F)(F)F)cn2)n1", "inhibition at 3 µM": "< 71%"}
{"Chemical string": "O=C(c1ncccc1-c1ncccn1)N1CC2(CC2)C[C@H]1CNc1ccc(C(F)(F)F)cn1", "inhibition at 3 µM": "< 47%"}
{"Chemical string": "O=C(c1nc(C(F)(F)F)ccc1-c1ncccn1)N1CC2(CC2)C[C@H]1CNc1ccc(C(F)(F)F)cn1", "inhibition at 3 µM": "< 39%"}
{"Chemical string": "N#Cc1ccc(-c2ncccn2)c(C(=O)N2CC3(CC3)C[C@H]2CNc2ccc(C(F)(F)F)cn2)c1", "inhibition at 3 µM": "< 32%"}
{"Chemical string": "Cc1ccc(-c2nccs2)c(C(=O)N2CC3(CC3)C[C@H]2CNc2ccc(C(F)(F)F)cn2)n1", "inhibition at 3 µM": "< 89%"}

###

- Study target: CYP3A4 (Homo sapiens)
- Test description: Inhibition of human recombinant CYP3A4 using BFC as substrate at 1 uM by fluorimetric assay
- Type: ADME
- Experimental setup: recombinant CYP3A4, probe BFC
Endpoint: inhibition at 1 µM

{"Chemical string": "Cc1ccc(-c2ncccn2)c(C(=O)N2CC3(CC3)C[C@H]2CNc2cc(C#N)ccn2)n1", "Reported": "< 17%"}
{"Chemical string": "Cc1cc(C(F)(F)F)cc(NC[C@@H]2CC3(CC3)CN2C(=O)c2nc(C)sc2-c2ccccc2)n1", "Reported": "< 69%"}
{"Chemical string": "Cc1cc(C)nc(NC[C@@H]2CC3(CC3)CN2C(=O)c2nc(C)sc2-c2ccccc2)n1", "Reported": "< 16%"}
{"Chemical string": "Cc1nc(C(=O)N2CC3(CC3)C[C@H]2CNc2cc(C(F)(F)F)ccn2)c(-c2ccccc2)s1", "Reported": "< 55%"}
{"Chemical string": "O=C(c1cc(Cl)ccc1-c1ncccn1)N1CC2(CC2)C[C@H]1CNc1cc(C(F)(F)F)ccn1", "Reported": "< 57%"}

###

- Test description: Volume of distribution at steady state in rat
- Format: ADME, organism-based
- Experimental setup: in vivo, read-out: Vdss
Endpoint: Vd (L/kg)

{"Chemical string": "Cc1nc(C(=O)N2CC3(CC3)C[C@H]2CNc2ccc(C(F)(F)F)cn2)c(-c2ccccc2)s1", "Endpoint": "Vd", "Reported": 3}
{"Chemical string": "Cc1ccc(-c2ccccc2)c(C(=O)N2CC3(CC3)C[C@H]2CNc2ccc(C(F)(F)F)cn2)n1", "Endpoint": "Vd", "Reported": 4.4}
{"Chemical string": "Cc1cc(C)nc(NC[C@@H]2CC3(CC3)CN2C(=O)c2nc(C)sc2-c2ccccc2)n1", "Endpoint": "Vd", "Reported": 0.7}
{"Chemical string": "Cc1ccc(-c2ncccn2)c(C(=O)N2CC3(CC3)C[C@H]2CNc2ccc(C(F)(F)F)cn2)n1", "Endpoint": "Vd", "Reported": 2}
{"Chemical string": "Cc1ccc(-n2nccn2)c(C(=O)N2CC3(CC3)C[C@H]2CNc2cccc(C)n2)c1", "Endpoint": "Vd", "Reported": 0.48}
{"Chemical string": "Cc1ccc(-c2ncccn2)c(C(=O)N2CC3(CC3)C[C@H]2CNc2ccc(Cl)cn2)c1", "Endpoint": "Vd", "Reported": 6.21}

###

- Study target: CYP3A4 (Homo sapiens, UniProt P08684)
- Sequence (P08684 whole entry): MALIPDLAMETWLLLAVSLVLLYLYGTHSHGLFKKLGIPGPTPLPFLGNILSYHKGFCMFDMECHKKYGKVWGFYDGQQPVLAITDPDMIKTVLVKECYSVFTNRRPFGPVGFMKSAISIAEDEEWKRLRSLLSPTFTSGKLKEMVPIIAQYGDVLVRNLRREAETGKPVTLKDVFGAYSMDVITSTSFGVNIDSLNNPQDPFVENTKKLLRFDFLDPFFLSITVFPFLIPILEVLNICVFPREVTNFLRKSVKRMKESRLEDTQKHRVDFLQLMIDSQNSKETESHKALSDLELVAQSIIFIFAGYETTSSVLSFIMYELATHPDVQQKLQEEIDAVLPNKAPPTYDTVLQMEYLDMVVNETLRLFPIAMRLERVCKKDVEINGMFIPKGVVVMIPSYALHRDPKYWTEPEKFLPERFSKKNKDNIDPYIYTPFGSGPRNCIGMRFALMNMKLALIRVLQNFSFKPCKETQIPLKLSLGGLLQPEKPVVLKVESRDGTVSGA
- Test description: Inhibition of human recombinant CYP3A4 using BFC as substrate at 3 uM by fluorimetric assay
- Type: ADME
- Experimental setup: recombinant CYP3A4, probe BFC

{"Chemical string": "Cc1ccc(-c2nccs2)c(C(=O)N2CC3(CC3)C[C@H]2CNc2ccc(C(F)(F)F)cn2)n1", "Study target": "CYP3A4 (Homo sapiens, UniProt P08684)", "inhibition at 3 µM": "< 89%"}
{"Chemical string": "Cc1cnn(-c2ccc(C)nc2C(=O)N2CC3(CC3)C[C@H]2CNc2ccc(C(F)(F)F)cn2)c1", "Study target": "CYP3A4 (Homo sapiens, UniProt P08684)", "inhibition at 3 µM": "< 85%"}
{"Chemical string": "O=C(c1nc(OC(F)(F)F)ccc1-c1ncccn1)N1CC2(CC2)C[C@H]1CNc1ccc(C(F)(F)F)cn1", "Study target": "CYP3A4 (Homo sapiens, UniProt P08684)", "inhibition at 3 µM": "< 58%"}
{"Chemical string": "O=C(c1ncccc1-c1ncccn1)N1CC2(CC2)C[C@H]1CNc1ccc(C(F)(F)F)cn1", "Study target": "CYP3A4 (Homo sapiens, UniProt P08684)", "inhibition at 3 µM": "< 47%"}
{"Chemical string": "Cc1nc(C(=O)N2CC3(CC3)C[C@H]2CNc2ccc(C(F)(F)F)cn2)c(-c2ccccc2)s1", "Study target": "CYP3A4 (Homo sapiens, UniProt P08684)", "inhibition at 3 µM": "< 20%"}
{"Chemical string": "Cc1ccc(-c2ncccn2)c(C(=O)N2CC3(CC3)C[C@H]2CNc2ccc(C(F)(F)F)cn2)n1", "Study target": "CYP3A4 (Homo sapiens, UniProt P08684)", "inhibition at 3 µM": "< 28%"}
{"Chemical string": "Cc1ccc(OCc2ccccc2)c(C(=O)N2CC3(CC3)C[C@H]2CNc2ccc(C(F)(F)F)cn2)n1", "Study target": "CYP3A4 (Homo sapiens, UniProt P08684)", "inhibition at 3 µM": "< 71%"}
{"Chemical string": "Cc1ccc(-c2ccccc2)c(C(=O)N2CC3(CC3)C[C@H]2CNc2ccc(C(F)(F)F)cn2)n1", "Study target": "CYP3A4 (Homo sapiens, UniProt P08684)", "inhibition at 3 µM": "< 20%"}

Taken from ChEMBL document CHEMBL2380240.
